# PROCEDURE_TEXT: in vivo
# Design: species or system BALB/c nude mice
# TEST_CONDITIONS: mouse, Bladder uptake
Numbered stars: 1 amine (or outer) side, 2 acyl side, 3 side chain; on linkers, the order of the positions; unused ones are H or OH. Square brackets hold non-standard residues; d marks the D form. Peptide text beside a SMILES is read from it. * marks the point of attachment. DOTA = O=C(O)CN1CCN(CC(=O)O)CCN(CC(=O)*)CCN(CC(=O)O)CC1; d(γGlu) = O=C(O)[C@@H](CCC(=O)[*:2])N[*:1]; 1Nal = N[C@@H](Cc1cccc2ccccc12)C(=O)O; NMeNle = CCCC[C@H](NC)C(=O)O; PEG4 = NCCOCCOCCOCCOCCC(=O)O
READOUT_KIND: tissue uptake at 2 h (%ID/g)
Quick note: give the figure in %ID/g, leave out the unit.

Task item: # get_value(readout='tissue uptake at 2 h', item= CCCC[C@@H](C(=O)N[C@@H](CC(=O)O)C(=O)N[C@@H](Cc1cccc2ccccc12)C(N)=O)N(C)C(=O)[C@H](Cc1c[nH]c2ccccc12)NC(=O)CCOCCOCCOCCOCCNC(=O)CC[C@@H](NC(=O)CN1CCN(CC(=O)O)CCN(CC(=O)O)CCN(CC(=O)O)CC1)C(=O)O [[68Ga]Ga-DOTA-CCK-66, metal not drawn, reference compound] ({DOTA-d(γGlu)-PEG4}-W[NMeNle]D[1Nal]-NH2) )
Reply: 1.37

====

# PROCEDURE_TEXT: in vivo
# Parameters: species or system BALB/c nude mice
# TEST_CONDITIONS: female, BALB/c nude, mouse, iv, 3.7 MBq, total radioactivity, Tumor-to-Heart ratio (T/B)
Numbered stars: 1 amine (or outer) side, 2 acyl side, 3 side chain; on linkers, the order of the positions; unused ones are H or OH. Square brackets hold non-standard residues; d marks the D form. Peptide text beside a SMILES is read from it. * marks the point of attachment. DOTA = O=C(O)CN1CCN(CC(=O)O)CCN(CC(=O)*)CCN(CC(=O)O)CC1; d(γGlu) = O=C(O)[C@@H](CCC(=O)[*:2])N[*:1]; 1Nal = N[C@@H](Cc1cccc2ccccc12)C(=O)O; NMeNle = CCCC[C@H](NC)C(=O)O; PEG4 = NCCOCCOCCOCCOCCC(=O)O
READOUT_KIND: tissue to tissue ratio at 2 h
Answer using only a numeral; do not append any unit.

Task item: # get_value(readout='tissue to tissue ratio at 2 h', item= CCCC[C@@H](C(=O)N[C@@H](CC(=O)O)C(=O)N[C@@H](Cc1cccc2ccccc12)C(N)=O)N(C)C(=O)[C@H](Cc1c[nH]c2ccccc12)NC(=O)CCOCCOCCOCCOCCNC(=O)CC[C@@H](NC(=O)CN1CCN(CC(=O)O)CCN(CC(=O)O)CCN(CC(=O)O)CC1)C(=O)O [[68Ga]Ga-DOTA-CCK-66, metal not drawn, reference compound] ({DOTA-d(γGlu)-PEG4}-W[NMeNle]D[1Nal]-NH2) )
Reply: 33.2

====

# PROCEDURE_TEXT: in vivo
# Parameters: species or system BALB/c nude mice
# TEST_CONDITIONS: mouse, Blood uptake
Numbered stars: 1 amine (or outer) side, 2 acyl side, 3 side chain; on linkers, the order of the positions; unused ones are H or OH. Square brackets hold non-standard residues; d marks the D form. Peptide text beside a SMILES is read from it. * marks the point of attachment. DOTA = O=C(O)CN1CCN(CC(=O)O)CCN(CC(=O)*)CCN(CC(=O)O)CC1; d(γGlu) = O=C(O)[C@@H](CCC(=O)[*:2])N[*:1]; 1Nal = N[C@@H](Cc1cccc2ccccc12)C(=O)O; NMeNle = CCCC[C@H](NC)C(=O)O; PEG4 = NCCOCCOCCOCCOCCC(=O)O
READOUT_KIND: tissue uptake at 0.5 h (%ID/g)
Quick note: give the figure in %ID/g, leave out the unit.

Task item: # get_value(readout='tissue uptake at 0.5 h', item= CCCC[C@@H](C(=O)N[C@@H](CC(=O)O)C(=O)N[C@@H](Cc1cccc2ccccc12)C(N)=O)N(C)C(=O)[C@H](Cc1c[nH]c2ccccc12)NC(=O)CCOCCOCCOCCOCCNC(=O)CC[C@@H](NC(=O)CN1CCN(CC(=O)O)CCN(CC(=O)O)CCN(CC(=O)O)CC1)C(=O)O [[68Ga]Ga-DOTA-CCK-66, metal not drawn, reference compound] ({DOTA-d(γGlu)-PEG4}-W[NMeNle]D[1Nal]-NH2) )
Reply: 1.22

====

# PROCEDURE_TEXT: in vivo
# Set-up: species or system BALB/c nude mice
# TEST_CONDITIONS: mouse, Liver uptake
Numbered stars: 1 amine (or outer) side, 2 acyl side, 3 side chain; on linkers, the order of the positions; unused ones are H or OH. Square brackets hold non-standard residues; d marks the D form. Peptide text beside a SMILES is read from it. * marks the point of attachment. DOTA = O=C(O)CN1CCN(CC(=O)O)CCN(CC(=O)*)CCN(CC(=O)O)CC1; d(γGlu) = O=C(O)[C@@H](CCC(=O)[*:2])N[*:1]; 1Nal = N[C@@H](Cc1cccc2ccccc12)C(=O)O; NMeNle = CCCC[C@H](NC)C(=O)O; PEG4 = NCCOCCOCCOCCOCCC(=O)O
READOUT_KIND: tissue uptake at 1 h (%ID/g)
Quick note: give the figure in %ID/g, leave out the unit.

Task item: # get_value(readout='tissue uptake at 1 h', item= CCCC[C@@H](C(=O)N[C@@H](CC(=O)O)C(=O)N[C@@H](Cc1cccc2ccccc12)C(N)=O)N(C)C(=O)[C@H](Cc1c[nH]c2ccccc12)NC(=O)CCOCCOCCOCCOCCNC(=O)CC[C@@H](NC(=O)CN1CCN(CC(=O)O)CCN(CC(=O)O)CCN(CC(=O)O)CC1)C(=O)O [[68Ga]Ga-DOTA-CCK-66, metal not drawn, reference compound] ({DOTA-d(γGlu)-PEG4}-W[NMeNle]D[1Nal]-NH2) )
Reply: 1.57

====

# PROCEDURE_TEXT: in vivo
# Design: species or system BALB/c nude mice
# TEST_CONDITIONS: female, BALB/c nude, mouse, iv, 3.7 MBq, total radioactivity, Tumor-to-Lung ratio (T/B)
Numbered stars: 1 amine (or outer) side, 2 acyl side, 3 side chain; on linkers, the order of the positions; unused ones are H or OH. Square brackets hold non-standard residues; d marks the D form. Peptide text beside a SMILES is read from it. * marks the point of attachment. DOTA = O=C(O)CN1CCN(CC(=O)O)CCN(CC(=O)*)CCN(CC(=O)O)CC1; d(γGlu) = O=C(O)[C@@H](CCC(=O)[*:2])N[*:1]; 1Nal = N[C@@H](Cc1cccc2ccccc12)C(=O)O; NMeNle = CCCC[C@H](NC)C(=O)O; PEG4 = NCCOCCOCCOCCOCCC(=O)O
READOUT_KIND: tissue to tissue ratio at 2 h

Task item: # get_value(readout='tissue to tissue ratio at 2 h', item= CCCC[C@@H](C(=O)N[C@@H](CC(=O)O)C(=O)N[C@@H](Cc1cccc2ccccc12)C(N)=O)N(C)C(=O)[C@H](Cc1c[nH]c2ccccc12)NC(=O)CCOCCOCCOCCOCCNC(=O)CC[C@@H](NC(=O)CN1CCN(CC(=O)O)CCN(CC(=O)O)CCN(CC(=O)O)CC1)C(=O)O [[68Ga]Ga-DOTA-CCK-66, metal not drawn, reference compound] ({DOTA-d(γGlu)-PEG4}-W[NMeNle]D[1Nal]-NH2) )
Reply: 11.7

====

# PROCEDURE_TEXT: in vivo
# Parameters: species or system BALB/c nude mice
# TEST_CONDITIONS: female, BALB/c nude, mouse, iv, 3.7 MBq, total radioactivity, Tumor-to-Liver ratio (T/B)
Numbered stars: 1 amine (or outer) side, 2 acyl side, 3 side chain; on linkers, the order of the positions; unused ones are H or OH. Square brackets hold non-standard residues; d marks the D form. Peptide text beside a SMILES is read from it. * marks the point of attachment. DOTA = O=C(O)CN1CCN(CC(=O)O)CCN(CC(=O)*)CCN(CC(=O)O)CC1; d(γGlu) = O=C(O)[C@@H](CCC(=O)[*:2])N[*:1]; 1Nal = N[C@@H](Cc1cccc2ccccc12)C(=O)O; NMeNle = CCCC[C@H](NC)C(=O)O; PEG4 = NCCOCCOCCOCCOCCC(=O)O
READOUT_KIND: tissue to tissue ratio at 0.5 h
Answer using only a numeral; do not append any unit.

Task item: # get_value(readout='tissue to tissue ratio at 0.5 h', item= CCCC[C@@H](C(=O)N[C@@H](CC(=O)O)C(=O)N[C@@H](Cc1cccc2ccccc12)C(N)=O)N(C)C(=O)[C@H](Cc1c[nH]c2ccccc12)NC(=O)CCOCCOCCOCCOCCNC(=O)CC[C@@H](NC(=O)CN1CCN(CC(=O)O)CCN(CC(=O)O)CCN(CC(=O)O)CC1)C(=O)O [[68Ga]Ga-DOTA-CCK-66, metal not drawn, reference compound] ({DOTA-d(γGlu)-PEG4}-W[NMeNle]D[1Nal]-NH2) )
Reply: 4.12
